target: JAK2 (Homo sapiens); construct: endogenous in cells; assay: Kinobeads assay, JAK2; details: mixed Molt4/Ramos lysate, read-out: Inhibition values (IC50) JAK2
Sequence (O60674 whole entry): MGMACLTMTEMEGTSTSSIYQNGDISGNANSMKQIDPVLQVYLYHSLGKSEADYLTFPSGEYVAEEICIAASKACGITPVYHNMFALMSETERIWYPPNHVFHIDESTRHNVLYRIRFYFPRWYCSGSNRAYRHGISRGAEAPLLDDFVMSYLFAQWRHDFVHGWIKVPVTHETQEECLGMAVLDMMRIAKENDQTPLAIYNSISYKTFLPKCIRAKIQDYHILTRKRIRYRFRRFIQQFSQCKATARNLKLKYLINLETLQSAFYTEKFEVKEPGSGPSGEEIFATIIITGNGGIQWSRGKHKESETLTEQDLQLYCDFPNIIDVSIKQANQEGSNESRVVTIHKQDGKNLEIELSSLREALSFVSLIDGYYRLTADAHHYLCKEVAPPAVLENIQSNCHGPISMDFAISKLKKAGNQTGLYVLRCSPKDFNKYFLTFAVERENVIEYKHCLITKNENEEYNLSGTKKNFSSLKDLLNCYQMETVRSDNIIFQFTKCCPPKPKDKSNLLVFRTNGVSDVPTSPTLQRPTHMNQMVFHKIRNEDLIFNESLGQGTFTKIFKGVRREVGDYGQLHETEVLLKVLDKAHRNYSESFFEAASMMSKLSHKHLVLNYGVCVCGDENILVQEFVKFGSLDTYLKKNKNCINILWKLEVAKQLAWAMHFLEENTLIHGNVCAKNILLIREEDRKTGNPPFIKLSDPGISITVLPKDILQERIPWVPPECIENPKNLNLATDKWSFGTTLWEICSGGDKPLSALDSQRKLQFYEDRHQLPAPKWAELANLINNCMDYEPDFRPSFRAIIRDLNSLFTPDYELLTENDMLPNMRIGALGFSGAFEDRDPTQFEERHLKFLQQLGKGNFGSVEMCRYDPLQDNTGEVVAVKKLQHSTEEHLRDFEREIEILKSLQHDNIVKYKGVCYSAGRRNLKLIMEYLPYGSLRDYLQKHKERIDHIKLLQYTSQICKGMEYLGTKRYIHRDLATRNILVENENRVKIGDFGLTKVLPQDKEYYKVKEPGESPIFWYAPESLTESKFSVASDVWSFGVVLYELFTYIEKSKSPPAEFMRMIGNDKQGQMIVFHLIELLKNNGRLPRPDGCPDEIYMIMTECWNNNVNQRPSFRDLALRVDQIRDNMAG
pIC50: −log10 of the molar value.
Property Measured: pIC50

# returns recorded pIC50 (system: JAK2 (Homo sapiens)) for Cn1cc(Nc2ncc(F)c(N[C@H](CO)c3cc(F)cc(-c4cnn(C)c4)c3)n2)cn1 ≤ 5.00

# returns recorded pIC50 (system: JAK2 (Homo sapiens)) for OCCn1cc(Nc2ncc(Cl)c(NC(CO)c3ccccc3Cl)n2)cn1 (centres unmarked) 5.00 to 6.00

# returns recorded pIC50 (system: JAK2 (Homo sapiens)) for CNC(=O)Cn1cc(Nc2ncc(Cl)c(N[C@H](CO)c3cccnc3)n2)cn1 5.00 to 6.00

# returns recorded pIC50 (system: JAK2 (Homo sapiens)) for Cn1cc(Nc2ncc(Cl)c(NC(CO)c3cccc(N4CCOCC4=O)c3)n2)cn1 (centres unmarked) ≤ 5.00

# returns recorded pIC50 (system: JAK2 (Homo sapiens)) for CNC(=O)Cn1cc(Nc2ncc(F)c(N[C@H](CO)c3cc(F)cc(-c4cnn(C)c4)c3)n2)cn1 ≤ 5.00

# returns recorded pIC50 (system: JAK2 (Homo sapiens)) for Cn1cc(Nc2ncc(Cl)c(N[C@H](CO)c3cccc(F)c3)n2)cn1 6.00 to 7.00

# returns recorded pIC50 (system: JAK2 (Homo sapiens)) for Cn1cc(Nc2ncc(Cl)c(NC(CO)c3cc(F)cc(F)c3)n2)cn1 (centres unmarked) 5.00 to 6.00

# returns recorded pIC50 (system: JAK2 (Homo sapiens)) for CNC(=O)Cn1cc(Nc2ncc(Cl)c(N[C@H](CO)c3cc(F)cc(F)c3)n2)cn1 6.00 to 7.00

# returns recorded pIC50 (system: JAK2 (Homo sapiens)) for NC(=O)Cn1cc(Nc2ncc(Cl)c(N[C@H](CO)c3ccccc3)n2)cn1 5.00 to 6.00

# returns recorded pIC50 (system: JAK2 (Homo sapiens)) for COc1cccc([C@@H](CO)Nc2nc(Nc3cnn(CC(N)=O)c3)ncc2Cl)c1 ≤ 5.00

# returns recorded pIC50 (system: JAK2 (Homo sapiens)) for COc1ccccc1[C@@H](CO)Nc1nc(Nc2cnn(CC(=O)N3CCOCC3)c2)ncc1Cl 5.00 to 6.00

# returns recorded pIC50 (system: JAK2 (Homo sapiens)) for Cc1cnc(Nc2cnn(CC(=O)N3CCOCC3)c2)nc1NC(CO)c1c(F)cccc1F (centres unmarked) 5.00 to 6.00

# returns recorded pIC50 (system: JAK2 (Homo sapiens)) for CN(C)C(=O)[C@@H](Nc1nc(Nc2cnn(C)c2)ncc1Cl)c1ccccc1 ≤ 5.00

# returns recorded pIC50 (system: JAK2 (Homo sapiens)) for CNC(=O)Cn1cc(Nc2ncc(Cl)c(NC(CO)c3cccc(F)c3)n2)cn1 (centres unmarked) 5.00 to 6.00

# returns recorded pIC50 (system: JAK2 (Homo sapiens)) for CC(C)NC(=O)Cn1cc(Nc2ncc(Cl)c(N[C@H](CO)c3ccccc3F)n2)cn1 5.00 to 6.00

# returns recorded pIC50 (system: JAK2 (Homo sapiens)) for Cn1cc(Nc2ncc(F)c(NC(CO)c3ccccc3)n2)cn1 (centres unmarked) ≤ 5.00

# returns recorded pIC50 (system: JAK2 (Homo sapiens)) for NC(=O)Cn1cc(Nc2ncc(Cl)c(N[C@H](CO)c3cccc(F)c3)n2)cn1 6.00 to 7.00
